Kindly supply the reported pIC50 values for the records listed here.
# Test system: HCT-116
# test-protocol: Antiproliferative activity against human HCT116 cells assessed as reduction in cell viability incubated for 48 hrs by MTT assay
# Assay type: functional, cell-based
# condition: HCT-116, 48 h
One number for each entry, as −log10 of the molar value.

smiles-representation	pIC50
CCN(CC)c1ccc2cc(C(=O)N3CCN(C(=O)C4=Cc5c(Br)cccc5S4(=O)=O)CC3)c(=O)oc2c1	5.72
O=S1(=O)C=Cc2ccccc21	5.03
CCN(CC)c1ccc2cc(C(=O)N3CCN(C(=O)C4=Cc5c(F)cccc5S4(=O)=O)CC3)c(=O)oc2c1	5.63
CCN(CC)c1ccc2cc(C(=O)N3CCN(C(=O)C4=Cc5cccc(Br)c5S4(=O)=O)CC3)c(=O)oc2c1	5.53
CCN(CC)c1ccc2cc(C(=O)N3CCN(C(=O)C4=Cc5ccc([N+](=O)[O-])cc5S4(=O)=O)CC3)c(=O)oc2c1	5.31

# batch: return pIC50 for each of the 2 molecules below
1. CCN(CC)c1ccc2cc(C(=O)N3CCN(C(=O)C4=Cc5c(Cl)cccc5S4(=O)=O)CC3)c(=O)oc2c1
2. CCN(CC)c1ccc2cc(C(=O)N3CCN(C(=O)C4=Cc5cc([N+](=O)[O-])ccc5S4(=O)=O)CC3)c(=O)oc2c1

[5.80, 5.17]

# batch: return pIC50 for each of the 3 molecules below
1. CCN(CC)c1ccc2cc(C(=O)N3CCN(C(=O)C4=Cc5ccccc5S4(=O)=O)CC3)c(=O)oc2c1
2. CCN(CC)c1ccc2cc(C(=O)N3CCN(C(=O)C4=Cc5ccc(Br)cc5S4(=O)=O)CC3)c(=O)oc2c1
3. CCN(CC)c1ccc2cc(C(=O)N3CCN(C(=O)C4=Cc5c([N+](=O)[O-])cccc5S4(=O)=O)CC3)c(=O)oc2c1

1: 5.42; 2: 5.55; 3: 5.49

# batch: return pIC50 for each of the 6 molecules below
1. CCN(CC)c1ccc2cc(C(=O)N3CCN(C(=O)C4=Cc5c(OC)cccc5S4(=O)=O)CC3)c(=O)oc2c1
2. CCN(CC)c1ccc2cc(C(=O)N3CCN(C(=O)C4=Cc5ccc(Cl)cc5S4(=O)=O)CC3)c(=O)oc2c1
3. O=[N+]([O-])c1ccc2c(c1)S(=O)(=O)C=C2
4. CCN(CC)c1ccc2cc(C(=O)N3CCN(C(=O)C4=Cc5cc(Cl)ccc5S4(=O)=O)CC3)c(=O)oc2c1
5. CCN(CC)c1ccc2cc(C(=O)N3CCN(C(=O)C4=Cc5cc(Br)ccc5S4(=O)=O)CC3)c(=O)oc2c1
6. CCN(CC)c1ccc2cc(C(=O)N3CCN(C(=O)C4=Cc5ccc(F)cc5S4(=O)=O)CC3)c(=O)oc2c1

[5.69, 5.35, 5.67, 5.39, 5.42, 5.37]

Kindly note the recorded pIC50 for `CCN(CC)c1ccc2cc(C(=O)N3CCN(C(=O)C4=Cc5ccc(OC)cc5S4(=O)=O)CC3)c(=O)oc2c1` , which is 5.64

Cited source for all entries: ChEMBL document CHEMBL4393689
